methodDescription: Mouse pharmacokinetic test
Format: in vivo, ICR mice
testConditions: male, ICR, po; mouse plasma, i.g. 10 mg/kg; read-out: AUC0-t
Rule: AUC(0-t) of 900 µg·h/mL or more gives Y; anything lower gives N.

[ask] Tell me whether AUC(0-t) is at least 900 µg·h/mL here: COn1cnc2ccc(Oc3c(F)ccc(NS(=O)(=O)N4CC5(CC5)C4)c3C#N)cc2c1=O [Compound 8]
[reply] Y

[ask] Tell me whether AUC(0-t) is at least 900 µg·h/mL here: N#Cc1c(NS(=O)(=O)N2CC3(CCC3)C2)ccc(F)c1Oc1ccc2ncn(CCF)c(=O)c2c1 [Compound 26]
[reply] N

[ask] Tell me whether AUC(0-t) is at least 900 µg·h/mL here: Cn1cnc2ccc(Oc3c(F)ccc(NS(=O)(=O)N4CC5(CC5)C4)c3C#N)cc2c1=O [Compound 5]
[reply] Y

[ask] Tell me whether AUC(0-t) is at least 900 µg·h/mL here: COn1cnc2ccc(Oc3c(F)ccc(NS(=O)(=O)N4CC5(CCC5)C4)c3C#N)cc2c1=O [Compound 7]
[reply] N

[ask] Tell me whether AUC(0-t) is at least 900 µg·h/mL here: COn1cnc2ccc(Oc3c(F)ccc(NS(=O)(=O)N4CC[C@@H](F)C4)c3C#N)cc2c1=O [Compound 4]
[reply] N

###

methodDescription: Mouse pharmacokinetic test
Assay type: in vivo, ICR mice
testConditions: male, ICR, iv; mouse plasma, i.v. 2.5 mg/kg; read-out: AUC0-t
Below: a set of entries, each annotated with reported AUC(0-t).
Please state the figure in µg·h/mL; there is no need to write the unit.

Worked cases, answers included:
>>> testvalue("N#Cc1c(NS(=O)(=O)N2CC3(CCC3)C2)ccc(F)c1Oc1ccc2ncn(CC(F)F)c(=O)c2c1")
272
>>> testvalue("COn1cnc2ccc(Oc3c(F)ccc(NS(=O)(=O)N4CC5(CC5)C4)c3C#N)cc2c1=O")
247
>>> testvalue("COn1cnc2ccc(Oc3c(F)ccc(NS(=O)(=O)N4CC5(CCC5)C4)c3C#N)cc2c1=O")
240
>>> testvalue("COn1cnc2ccc(Oc3c(F)ccc(NS(=O)(=O)N4CC[C@@H](F)C4)c3C#N)cc2c1=O")
107
>>> testvalue("N#Cc1c(NS(=O)(=O)N2CC3(CCC3)C2)ccc(F)c1Oc1ccc2ncn(CCF)c(=O)c2c1")
266

[ask] Read off the recorded AUC(0-t) for `Cn1cnc2ccc(Oc3c(F)ccc(NS(=O)(=O)N4CC5(CC5)C4)c3C#N)cc2c1=O`
[reply] 290

###

methodDescription: Mouse pharmacokinetic test
Format: in vivo, ICR mice
testConditions: mouse, i.g. 10 mg/kg
metric: F (%)
Please state the figure in %; there is no need to write the unit.

Worked cases, answers included:
>>> testvalue("N#Cc1c(NS(=O)(=O)N2CC3(CCC3)C2)ccc(F)c1Oc1ccc2ncn(CC(F)F)c(=O)c2c1")
83.9
>>> testvalue("Cn1cnc2ccc(Oc3c(F)ccc(NS(=O)(=O)N4CC5(CC5)C4)c3C#N)cc2c1=O")
93.6
>>> testvalue("N#Cc1c(NS(=O)(=O)N2CC3(CCC3)C2)ccc(F)c1Oc1ccc2ncn(CCF)c(=O)c2c1")
78.1

[ask] Read off the recorded F for `Cc1cnc2c3cc(Oc4c(F)ccc(NS(=O)(=O)N5CC6(CCC6)C5)c4C#N)ccc3ncn12`
[reply] 87.9

[ask] Read off the recorded F for `COn1cnc2ccc(Oc3c(F)ccc(NS(=O)(=O)N4CC5(CCC5)C4)c3C#N)cc2c1=O`
[reply] 92.6

###

methodDescription: Mouse pharmacokinetic test
Type: in vivo, ICR mice
testConditions: male, ICR, brain/plasma, po; mouse, i.g. 10 mg/kg; read-out: brain/plasma ratio
Rule: Kp of 0.02 or more gives true (1); anything lower gives false (0).

[ask] Tell me whether Kp is at least 0.02 here: `N#Cc1c(NS(=O)(=O)N2CC3(CCC3)C2)ccc(F)c1Oc1ccc2ncn(CC(F)F)c(=O)c2c1`
[reply] false (0)

[ask] Tell me whether Kp is at least 0.02 here: `COn1cnc2ccc(Oc3c(F)ccc(NS(=O)(=O)N4CC[C@@H](F)C4)c3C#N)cc2c1=O`
[reply] true (1)

[ask] Tell me whether Kp is at least 0.02 here: `N#Cc1c(NS(=O)(=O)N2CC3(CCC3)C2)ccc(F)c1Oc1ccc2ncn(CCF)c(=O)c2c1`
[reply] false (0)

[ask] Tell me whether Kp is at least 0.02 here: `COn1cnc2ccc(Oc3c(F)ccc(NS(=O)(=O)N4CC5(CC5)C4)c3C#N)cc2c1=O`
[reply] false (0)

[ask] Tell me whether Kp is at least 0.02 here: `COn1cnc2ccc(Oc3c(F)ccc(NS(=O)(=O)N4CC5(CCC5)C4)c3C#N)cc2c1=O`
[reply] true (1)

[ask] Tell me whether Kp is at least 0.02 here: `Cn1cnc2ccc(Oc3c(F)ccc(NS(=O)(=O)N4CC5(CC5)C4)c3C#N)cc2c1=O`
[reply] false (0)

###

methodDescription: Beagle dog pharmacokinetic test
Format: in vivo, beagle dogs
testConditions: male, iv; beagle dog plasma, i.v. 0.5 mg/kg; read-out: Vdss
metric: Vd
Express your answer as a number followed by its unit.

[ask] Read off the recorded Vd for N#Cc1c(NS(=O)(=O)N2CC3(CCC3)C2)ccc(F)c1Oc1ccc2ncn(CC(F)F)c(=O)c2c1 [Compound 10]
[reply] 0.155 L/kg

###

methodDescription: Beagle dog pharmacokinetic test
Assay type: in vivo, beagle dogs
testConditions: male, iv; beagle dog plasma, i.v. 0.5 mg/kg
metric: clearance (mL/min/kg)
Please state the figure in mL/min/kg; there is no need to write the unit.

[ask] Read off the recorded clearance for N#Cc1c(NS(=O)(=O)N2CC3(CCC3)C2)ccc(F)c1Oc1ccc2ncn(CC(F)F)c(=O)c2c1 [Compound 10]
[reply] 0.425

###

methodDescription: Mouse pharmacokinetic test
Type: in vivo, ICR mice
testConditions: male, ICR, iv; mouse plasma, i.v. 2.5 mg/kg; read-out: Vdss
metric: Vd (L/kg)
Please state the figure in L/kg; there is no need to write the unit.

>>> testvalue("COn1cnc2ccc(Oc3c(F)ccc(NS(=O)(=O)N4CC5(CCC5)C4)c3C#N)cc2c1=O [Compound 7]")
0.111
>>> testvalue("Cn1cnc2ccc(Oc3c(F)ccc(NS(=O)(=O)N4CC5(CC5)C4)c3C#N)cc2c1=O [Compound 5]")
0.159
>>> testvalue("N#Cc1c(NS(=O)(=O)N2CC3(CCC3)C2)ccc(F)c1Oc1ccc2ncn(CCF)c(=O)c2c1 [Compound 26]")
0.114
>>> testvalue("COn1cnc2ccc(Oc3c(F)ccc(NS(=O)(=O)N4CC[C@@H](F)C4)c3C#N)cc2c1=O [Compound 4]")
0.147
>>> testvalue("N#Cc1c(NS(=O)(=O)N2CC3(CCC3)C2)ccc(F)c1Oc1ccc2ncn(CC(F)F)c(=O)c2c1 [Compound 10]")
0.111

Could you now look at the following molecule, please?
[ask] Read off the recorded Vd for COn1cnc2ccc(Oc3c(F)ccc(NS(=O)(=O)N4CC5(CC5)C4)c3C#N)cc2c1=O [Compound 8]
[reply] 0.0941

###

methodDescription: Mouse pharmacokinetic test
Type: in vivo, ICR mice
testConditions: male, ICR, po; mouse plasma, i.g. 10 mg/kg
Rule: half-life of 10 h or more gives Yes; anything lower gives No.

Examples with answers:
>>> answerlabel("COn1cnc2ccc(Oc3c(F)ccc(NS(=O)(=O)N4CC5(CC5)C4)c3C#N)cc2c1=O [Compound 8]")
"Yes"
>>> answerlabel("COn1cnc2ccc(Oc3c(F)ccc(NS(=O)(=O)N4CC[C@@H](F)C4)c3C#N)cc2c1=O [Compound 4]")
"No"
>>> answerlabel("Cn1cnc2ccc(Oc3c(F)ccc(NS(=O)(=O)N4CC5(CC5)C4)c3C#N)cc2c1=O [Compound 5]")
"Yes"

[ask] Tell me whether half-life is at least 10 h here: N#Cc1c(NS(=O)(=O)N2CC3(CCC3)C2)ccc(F)c1Oc1ccc2ncn(CC(F)F)c(=O)c2c1 [Compound 10]
[reply] Yes

[ask] Tell me whether half-life is at least 10 h here: N#Cc1c(NS(=O)(=O)N2CC3(CCC3)C2)ccc(F)c1Oc1ccc2ncn(CCF)c(=O)c2c1 [Compound 26]
[reply] No

[ask] Tell me whether half-life is at least 10 h here: COn1cnc2ccc(Oc3c(F)ccc(NS(=O)(=O)N4CC5(CCC5)C4)c3C#N)cc2c1=O [Compound 7]
[reply] Yes

###

methodDescription: Mouse pharmacokinetic test
Format: in vivo, ICR mice
testConditions: male, ICR, iv; mouse plasma, i.v. 2.5 mg/kg
Decide using clearance alone. Strictly below 0.1 mL/min/kg: Y. Equal to or above 0.1 mL/min/kg: N.

Examples with answers:
>>> answerlabel("COn1cnc2ccc(Oc3c(F)ccc(NS(=O)(=O)N4CC[C@@H](F)C4)c3C#N)cc2c1=O")
"N"
>>> answerlabel("COn1cnc2ccc(Oc3c(F)ccc(NS(=O)(=O)N4CC5(CC5)C4)c3C#N)cc2c1=O")
"N"
>>> answerlabel("N#Cc1c(NS(=O)(=O)N2CC3(CCC3)C2)ccc(F)c1Oc1ccc2ncn(CC(F)F)c(=O)c2c1")
"N"

[ask] State whether 0.1 mL/min/kg exceeds clearance recorded for `Cn1cnc2ccc(Oc3c(F)ccc(NS(=O)(=O)N4CC5(CC5)C4)c3C#N)cc2c1=O` .
[reply] Y

[ask] State whether 0.1 mL/min/kg exceeds clearance recorded for `COn1cnc2ccc(Oc3c(F)ccc(NS(=O)(=O)N4CC5(CCC5)C4)c3C#N)cc2c1=O` .
[reply] N

[ask] State whether 0.1 mL/min/kg exceeds clearance recorded for `N#Cc1c(NS(=O)(=O)N2CC3(CCC3)C2)ccc(F)c1Oc1ccc2ncn(CCF)c(=O)c2c1` .
[reply] N
